Experiment summary: Simulated gastric fluid (SGF) stability, with and without pepsin
Format: in vitro ADME
Condition info: simulated gastric fluid without pepsin; SGF w/o pepsin, pH 1.2, 2 μM
Measured endpoint: half-life at 2 μM

**Q:** So what's the measured half-life at 2 μM for this one? CCCCCCCCCCCCCCCC(=O)NCCOC(=O)CCC(=O)OCC(O)CO (stereo not shown)
**A:** > 2 h

###

Experiment summary: Simulated intestinal fluid (SIF) stability in the presence of various enzymes
Format: in vitro ADME
Condition info: SIF + Carboxypeptidase A, 120 min, 1 μM
Protocol: Studies were carried out in simulated intestinal fluid in the presence of various enzymes. Simulated intestinal fluid was prepared by dissolving 6.8 g of monobasic potassium phosphate in 1.0 L of water. Aliquots of this solution were taken and the pH was adjusted to 6.8. Individual enzymes were then spiked into aliquots for each experiment. A DMSO stock was first prepared for the test article. […]
Measured endpoint: % Remaining of Initial (n = 1)
Number plus unit, in that order.

Known results for compounds:
**Q:** So what's the measured % Remaining of Initial (n = 1) for this one? CCCCC/C=C\C/C=C\CCCCCCCC(=O)OCCNC(=O)CCCCCCCCCCCCCCC
**A:** 56%

**Q:** Now consider CCCCCCCCCCCCCCCC(=O)NCCOC(=O)CCC .
**A:** 43%

**Q:** Now consider CCCCC/C=C\C/C=C\CCCCCCCC(=O)OCC(COC(=O)CCC(=O)OCCNC(=O)CCCCCCCCCCCCCCC)OC(=O)CCCCCCC/C=C\C/C=C\CCCCC (stereo not shown) .
**A:** 37%

API: the following record is the query input.
**Q:** So what's the measured % Remaining of Initial (n = 1) for this one? CCCCCCCCCCCCCCCC(=O)NCCOC(=O)CCC(=O)OCC(COC(=O)CCC)OC(=O)CCC (stereo not shown)
**A:** 18%

###

Experiment summary: Plasma stability (37° C., pH 7.4), human
Assay type: in vitro ADME
Condition info: human plasma, test article 1 μM, 37° C., pH 7.4, 60 min
Measured endpoint: % Remaining of Initial (n = 1), 60 min

Known results for molecules:
**Q:** So what's the measured % Remaining of Initial (n = 1), 60 min for this one? CCCCCCCCCCCCCCCC(=O)NCCOC(=O)CCC(=O)OCC(O)CO (stereo not shown) [Compound I-9]
**A:** <1.0%

**Q:** Now consider CC/C=C\C/C=C\C/C=C\C/C=C\C/C=C\CCCC(=O)OCCNC(=O)CCCCCCCCCCCCCCC [Compound I-5] .
**A:** 82%

**Q:** Now consider CCCCC/C=C\C/C=C\CCCCCCCC(=O)OCCNC(=O)CCCCCCCCCCCCCCC [Compound I-6] .
**A:** 74%

API: the following record is the query input.
**Q:** So what's the measured % Remaining of Initial (n = 1), 60 min for this one? CCCCCCCCCCCCCCCC(=O)NCCOC(=O)CCC(=O)OCC(COC(=O)CCC)OC(=O)CCC (stereo not shown) [Compound I-11]
**A:** 34%

###

Experiment summary: in vitro
Condition info: male, Sprague-Dawley, rat, microsomes, 10 min, 1 μM
I'd be grateful if you could share measured % Remaining of Initial, 10 min for these entries.

**Q:** So what's the measured % Remaining of Initial, 10 min for this one? CCCCC/C=C\C/C=C\CCCCCCCC(=O)OCCNC(=O)CCCCCCCCCCCCCCC
**A:** 68%

List % Remaining of Initial, 10 min for every entry below, keeping the order given.
1. CC/C=C\C/C=C\C/C=C\C/C=C\C/C=C\CCCC(=O)OCCNC(=O)CCCCCCCCCCCCCCC
2. CCCCCCCCCCCCCCCC(=O)NCCOC(=O)CCC(=O)OCC(COC(=O)CCC)OC(=O)CCC (stereo not shown)
3. CCCCCCCCCCCCCCCC(=O)NCCOC(=O)CCC
4. CCCCCCCCCCCCCCCC(=O)NCCOC(=O)CCC(=O)OCC(O)CO (stereo not shown)

**A:**
77%
3.3%
<1.0%
1.9%

List % Remaining of Initial, 10 min for every entry below, keeping the order given.
1. CCCCCCCCCCCCCCCC(=O)NCCOC(=O)CCC(=O)OCC(COC(=O)CCCCCCC)OC(=O)CCCCCCC (stereo not shown) [Compound I-3, PEA-Succinate-Glycerol-Di-Caprylic]
2. CCCCCCCCCCCCCCCC(=O)NCCOC(=O)CCC(=O)OC[C@H]1O[C@@](CO)(O[C@H]2O[C@H](CO)[C@@H](O)[C@H](O)[C@H]2O)[C@@H](O)[C@@H]1O

**A:**
1: 81%; 2: 45%

###

Experiment summary: in vitro
Condition info: male, CD-1, mouse, s9, Half-life
I'd be grateful if you could share measured half-life at 1 μM for these entries.

Known results for compounds:
**Q:** So what's the measured half-life at 1 μM for this one? CCCCCCCCCCCCCCCC(=O)NCCOC(=O)CCC(=O)OC(COC(=O)CCC)COC(=O)CCC
**A:** < 10 min

**Q:** Now consider CCCCC/C=C\C/C=C\CCCCCCCC(=O)OCC(COC(=O)CCC(=O)OCCNC(=O)CCCCCCCCCCCCCCC)OC(=O)CCCCCCC/C=C\C/C=C\CCCCC (stereo not drawn) .
**A:** > 60 min

API: the following record is the query input.
**Q:** So what's the measured half-life at 1 μM for this one? CCCCCCCCCCCCCCCC(=O)NCCOC(=O)CCC(=O)OC(CO)CO
**A:** 18 min

###

Experiment summary: in vitro
Condition info: male, Beagle, dog, 0 min, 1 μM
I'd be grateful if you could share measured Concentration (μM) of analyte PEA, 0 min for these entries.
Number plus unit, in that order.

Known results for compounds:
**Q:** So what's the measured Concentration (μM) of analyte PEA, 0 min for this one? CCCCCCCCCCCCCCCC(=O)NCCOC(=O)CCC(=O)OCC(O)CO (stereo not shown)
**A:** 0.26 µM

**Q:** Now consider CCCCCCCCCCCCCCCC(=O)NCCOC(=O)CCC(=O)OC[C@H]1O[C@@](CO)(O[C@H]2O[C@H](CO)[C@@H](O)[C@H](O)[C@H]2O)[C@@H](O)[C@@H]1O .
**A:** 0.38 µM

**Q:** Now consider CCCCCCCCCCCCCCCC(=O)NCCOC(=O)CCC .
**A:** 0.11 µM

API: the following record is the query input.
**Q:** So what's the measured Concentration (μM) of analyte PEA, 0 min for this one? CCCCC/C=C\C/C=C\CCCCCCCC(=O)OCCNC(=O)CCCCCCCCCCCCCCC
**A:** 0.26 µM

###

Experiment summary: in vitro
Condition info: male, Sprague-Dawley, rat, microsomes, Calculated half-life (in parentheses)
Measured endpoint: half-life at 1 μM (h)
Numbers only, in h.

**Q:** So what's the measured half-life at 1 μM for this one? CC/C=C\C/C=C\C/C=C\C/C=C\C/C=C\CCCC(=O)OCCNC(=O)CCCCCCCCCCCCCCC [Compound I-5]
**A:** 1.25

**Q:** Now consider CCCCC/C=C\C/C=C\CCCCCCCC(=O)OCCNC(=O)CCCCCCCCCCCCCCC [Compound I-6] .
**A:** 1.05

API: the following record is the query input.
**Q:** So what's the measured half-life at 1 μM for this one? CCCCCCCCCCCCCCCC(=O)NCCOC(=O)CCC(=O)OCC(COC(=O)CCCCCCC)OC(=O)CCCCCCC (stereo not drawn) [Compound I-3, PEA-Succinate-Glycerol-Di-Caprylic]
**A:** 1.87

###

I'd be grateful if you could share measured % Remaining of Initial (n = 1), 10 min for these entries.
Experiment summary: in vitro
Condition info: male, Beagle, dog, s9, 10 min, 1 μM
Answers are plain numbers, in %.

List % Remaining of Initial (n = 1), 10 min for every entry below, keeping the order given.
1. CCCCC/C=C\C/C=C\CCCCCCCC(=O)OCCNC(=O)CCCCCCCCCCCCCCC [Compound I-6]
2. CCCCCCCCCCCCCCCC(=O)NCCOC(=O)CCC(=O)OCC(COC(=O)CCC)OC(=O)CCC (stereo not shown) [Compound I-11]
3. CCCCCCCCCCCCCCCC(=O)NCCOC(=O)CCC [Compound I-2]
4. CCCCCCCCCCCCCCCC(=O)NCCOC(=O)CCC(=O)OCC(COC(=O)CCCCCCC)OC(=O)CCCCCCC (stereo not shown) [Compound I-3, PEA-Succinate-Glycerol-Di-Caprylic]

**A:**
1. 101
2. 4.6
3. 5.1
4. 104

###

Experiment summary: Liver microsomal stability, rat
Condition info: male, Sprague-Dawley, microsomes, CLint, Rat liver microsomes, control compound
Measured endpoint: microsomal CLint (µL/min/mg)
Answers are plain numbers, in µL/min/mg.

**Q:** So what's the measured microsomal CLint for this one? C[C@]12CC[C@H]3[C@@H](CCC4=CC(=O)CC[C@@]43C)[C@@H]1CC[C@@H]2O [Testosterone, testosterone, reference compound]
**A:** 1010
